test: Navitoclax plasma pharmacokinetics; type: in vivo, human; details: human, plasma, po, 100 mg
RECORDED_METRIC: Tmax (h)
Report the value in h with no unit label.

Query string: May I ask what Tmax has been recorded for CC1(C)CCC(c2ccc(Cl)cc2)=C(CN2CCN(c3ccc(C(=O)NS(=O)(=O)c4ccc(N[C@H](CCN5CCOCC5)CSc5ccccc5)c(S(=O)(=O)C(F)(F)F)c4)cc3)CC2)C1 ?
Result string: 6

====

experiment: Navitoclax plasma pharmacokinetics; assay type: in vivo, human; conditions: human, plasma, po, 100 mg
RECORDED_METRIC: Cmax (ng/mL)
Report the value in ng/mL with no unit label.

Query string: May I ask what Cmax has been recorded for CC1(C)CCC(c2ccc(Cl)cc2)=C(CN2CCN(c3ccc(C(=O)NS(=O)(=O)c4ccc(N[C@H](CCN5CCOCC5)CSc5ccccc5)c(S(=O)(=O)C(F)(F)F)c4)cc3)CC2)C1 ?
Result string: 2300

Ref: paper PMC4643417
